Target: Leukotriene C4 synthase (Homo sapiens, UniProt Q16873)
Sequence (Q16873 whole entry): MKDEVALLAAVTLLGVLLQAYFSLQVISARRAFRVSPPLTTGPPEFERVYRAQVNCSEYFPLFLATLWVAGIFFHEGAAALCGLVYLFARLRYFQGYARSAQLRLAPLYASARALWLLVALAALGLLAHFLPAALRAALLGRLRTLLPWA
Measurement notes: Inhibition of human LTC4 synthase expressed in HEK293 cell microsomes preincubated for 10 mins followed by LTA4-methyl ester addition and measured after 10 mins by UPLC-MS/MS analysis
Value type: IC50 (µM)
Your answer should be a plain number; it is taken to be in µM.

molecule="CC(C)Cc1ccc(C(C)c2nc3cc(-c4ccc(C(=O)O)cc4)ccc3n2Cc2ccccc2Cl)cc1 (configuration not stated)" value_type=IC50 numeric_readout=15.9

In the following, a different molecule is considered.
Query: # query: IC50 | item CC(C)Cc1ccc(C(C)c2nc3cc(-c4n[nH]c(=S)o4)ccc3n2Cc2ccccc2Cl)cc1 (configuration not stated) | system: Leukotriene C4 synthase (Homo sapiens, UniProt Q16873)
Reply: 6.19

###

Below, each entry is listed alongside its reported inhibition.
Target: Prostaglandin E synthase (Homo sapiens)
Sequence (whole entry): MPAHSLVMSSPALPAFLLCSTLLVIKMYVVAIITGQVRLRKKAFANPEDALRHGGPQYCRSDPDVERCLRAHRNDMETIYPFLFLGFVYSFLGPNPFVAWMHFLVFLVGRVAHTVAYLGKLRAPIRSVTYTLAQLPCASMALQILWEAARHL
Measurement notes: Inhibition of mPGES1 in IL-1beta-stimulated human A549 cell microsomal fractions assessed as reduction in PGE2 production at 3 uM preincubated for 15 mins followed by PGH2 substrate addition and measured after 1 min by RP-HPLC analysis relative to control

These recorded examples may help you get a feel for the data.
compound="CC(C)Cc1ccc(C(C)c2nc3cc(C#N)ccc3n2Cc2ccccc2Cl)cc1 (centres undefined)" result="> 50%"
compound="CC(C)Cc1ccc(C(C)c2nc3c(CCC(=O)O)cccc3n2Cc2ccccc2Cl)cc1 (centres undefined)" result="> 50%"
compound="CC(Cc1ccc(-c2cnc(N)nc2)cc1)c1nc2cc(C#N)ccc2n1Cc1ccccc1Cl (centres undefined)" result="< 50%"
compound="CC(C)Cc1ccc(C(C)c2nc3cc(S(N)(=O)=O)ccc3n2Cc2ccccc2Cl)cc1 (centres undefined)" result="> 50%"
compound="CC(C)Cc1ccc(C(C)c2nc3cc(C(=O)O)ccc3n2Cc2ccccc2Cl)cc1 (centres undefined)" result="> 50%"
compound="CC(C)Cc1ccc(C(C)c2nc3cc(-c4nc(C(=O)O)cs4)ccc3n2Cc2ccccc2Cl)cc1 (centres undefined)" result="> 50%"
compound="CC(C)Cc1ccc(C(C)c2nc3cc(-c4n[nH]c(=S)o4)ccc3n2Cc2ccccc2Cl)cc1 (centres undefined)" result="> 50%"
compound="CC(C)Cc1ccc(C(C)c2nc3cc(-c4nnn[nH]4)ccc3n2Cc2ccccc2Cl)cc1 (centres undefined)" result="> 50%"
compound="CC(C)Cc1ccc(C(C)c2nc3cc(OCC(=O)O)ccc3n2Cc2ccccc2Cl)cc1 (centres undefined)" result="> 50%"
compound="CC(C)Cc1ccc(C(C)c2nc3cc(-c4noc(=O)[nH]4)ccc3n2Cc2ccccc2Cl)cc1 (centres undefined)" result="> 50%"

Query: Reported inhibition, compound CC(C)Cc1ccc(C(C)c2nc3cc(CC(=O)O)ccc3n2Cc2ccccc2Cl)cc1 (centres undefined) : ____
Reply: > 50%

Query: Reported inhibition, compound CC(C)Cc1ccc(C(C)c2nc3cc(-c4nnco4)ccc3n2Cc2ccccc2Cl)cc1 (centres undefined) : ____
Reply: < 50%

Query: Reported inhibition, compound "N#Cc1ccc2c(c1)nc(CCc1ccc(-c3cnc(N)nc3)cc1)n2Cc1ccccc1Cl" : ____
Reply: < 50%

Query: Reported inhibition, compound CC(C)Cc1ccc(C(C)c2nc3cc(-c4ccc(C(=O)O)cc4)ccc3n2Cc2ccccc2Cl)cc1 (centres undefined) : ____
Reply: > 50%

Query: Reported inhibition, compound CC(C)Cc1ccc(C(C)c2nc3cc(-c4cccc(C(=O)O)c4)ccc3n2Cc2ccccc2Cl)cc1 (centres undefined) : ____
Reply: > 50%

Query: Reported inhibition, compound CC(C)Cc1ccc(C(C)c2nc3cc(-c4ccccc4C(=O)O)ccc3n2Cc2ccccc2Cl)cc1 (centres undefined) : ____
Reply: > 50%

Query: Reported inhibition, compound CC(C)Cc1ccc(C(C)c2nc3cc(CCC(=O)O)ccc3n2Cc2ccccc2Cl)cc1 (centres undefined) : ____
Reply: > 50%

Query: Reported inhibition, compound CC(C)Cc1ccc(C(C)c2nc3cc(OC(C)(C)C(=O)O)ccc3n2Cc2ccccc2Cl)cc1 (centres undefined) : ____
Reply: > 50%

Query: Reported inhibition, compound CC(C)Cc1ccc(C(C)c2nc3c(CC(=O)O)cccc3n2Cc2ccccc2Cl)cc1 (centres undefined) : ____
Reply: > 50%

###

Target: Arachidonate 5-lipoxygenase-activating protein (Homo sapiens, UniProt P20292)
Sequence (P20292 whole entry): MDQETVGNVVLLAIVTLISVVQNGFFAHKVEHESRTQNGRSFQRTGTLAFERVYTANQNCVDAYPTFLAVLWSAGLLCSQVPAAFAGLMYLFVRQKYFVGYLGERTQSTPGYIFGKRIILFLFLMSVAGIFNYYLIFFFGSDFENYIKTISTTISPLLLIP
Measurement notes: Inhibition of FLAP in A23187-stimulated human neutrophils assessed as reduction in 5-LO product formation preincubated for 15 mins followed by A23187 and arachidonic acid addition and measured after 10 mins by UV based RP-HPLC analysis
Below, each entry is listed alongside its reported log10(IC50).
Kindly note that the scale is log10 and the underlying IC50 is in nM.

molecule="CC(C)Cc1ccc(C(C)c2nc3c(C(=O)O)cccc3n2Cc2ccccc2Cl)cc1 (centres undefined)" numeric_readout=2.60
molecule="CC(C)Cc1ccc(C(C)c2nc3cc(CCC(=O)O)ccc3n2Cc2ccccc2Cl)cc1 (centres undefined)" numeric_readout=1.70
molecule=N#Cc1ccc2c(c1)nc(NCCc1c[nH]c3ccccc13)n2Cc1ccccc1Cl numeric_readout=3.94

Query: Reported log10(IC50), molecule CC(C)Cc1ccc(C(C)c2nc3cc(CC(=O)O)ccc3n2Cc2ccccc2Cl)cc1 (centres undefined) : ____
Reply: 2.65

Query: Reported log10(IC50), molecule "N#Cc1ccc2c(c1)nc(CCc1ccc(-c3ccc(N)nn3)cc1)n2Cc1ccccc1Cl" : ____
Reply: 2.82

Query: Reported log10(IC50), molecule CC(C)Cc1ccc(C(C)c2nc3cc(-c4cccc(C(=O)O)c4)ccc3n2Cc2ccccc2Cl)cc1 (centres undefined) : ____
Reply: 1.87

Query: Reported log10(IC50), molecule CC(C)Cc1ccc(C(C)c2nc3cc(-c4n[nH]c(=S)o4)ccc3n2Cc2ccccc2Cl)cc1 (centres undefined) : ____
Reply: 1.70

###

Target: Arachidonate 5-lipoxygenase-activating protein (Homo sapiens)
Measurement notes: Inhibition of FLAP in A23187-stimulated human monocytes assessed as reduction in 5-LO product formation preincubated for 15 mins followed by A23187 and arachidonic acid addition and measured after 10 mins by UV based RP-HPLC analysis
Assay type: cell-based
Value type: IC50 (nM)
Your answer should be a plain number; it is taken to be in nM.

Query: Reported IC50, compound CC(C)Cc1ccc(C(C)c2nc3cc(CCC(=O)O)ccc3n2Cc2ccccc2Cl)cc1 (stereo unspecified) : ____
Reply: 70

###

Target: Polyunsaturated fatty acid 5-lipoxygenase (Homo sapiens, UniProt P09917)
Sequence (P09917 whole entry): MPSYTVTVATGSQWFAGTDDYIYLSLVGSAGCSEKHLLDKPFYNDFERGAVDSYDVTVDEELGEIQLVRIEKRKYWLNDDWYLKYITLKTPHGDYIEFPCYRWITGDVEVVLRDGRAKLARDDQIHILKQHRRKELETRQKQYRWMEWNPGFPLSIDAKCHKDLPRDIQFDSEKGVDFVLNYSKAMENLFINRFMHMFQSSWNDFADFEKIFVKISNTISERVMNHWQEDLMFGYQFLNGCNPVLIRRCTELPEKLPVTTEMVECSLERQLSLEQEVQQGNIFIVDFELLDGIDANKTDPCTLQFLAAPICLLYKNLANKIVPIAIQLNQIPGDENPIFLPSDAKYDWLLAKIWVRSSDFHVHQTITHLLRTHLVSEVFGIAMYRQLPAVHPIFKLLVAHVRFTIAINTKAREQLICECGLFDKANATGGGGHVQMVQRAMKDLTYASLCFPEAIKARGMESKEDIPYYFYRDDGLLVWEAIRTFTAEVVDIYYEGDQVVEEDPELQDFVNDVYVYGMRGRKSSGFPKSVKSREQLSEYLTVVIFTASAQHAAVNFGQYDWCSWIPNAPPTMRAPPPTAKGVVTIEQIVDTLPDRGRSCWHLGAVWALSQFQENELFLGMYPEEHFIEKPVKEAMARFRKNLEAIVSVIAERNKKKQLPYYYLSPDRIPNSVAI
Measurement notes: Inhibition of 5-LO in A23187-stimulated human neutrophils assessed as reduction in 5-LO product formation preincubated for 15 mins followed by A23187 and 10 uM arachidonic acid addition and measured after 10 mins by UV based RP-HPLC analysis
Value type: IC50 (nM)
Your answer should be a plain number; it is taken to be in nM.

Query: Reported IC50, molecule CC(C)Cc1ccc(C(C)c2nc3cc(CCC(=O)O)ccc3n2Cc2ccccc2Cl)cc1 (stereo unspecified) : ____
Reply: 60

###

Below, each entry is listed alongside its reported pIC50.
Target: Polyunsaturated fatty acid 5-lipoxygenase (Homo sapiens)
Measurement notes: Inhibition of recombinant human 5-LO expressed in Escherichia coli BL21 incubated for 15 mins prior to prewarming for 30 secs followed by CaCl2+ and arachidonic acid addition and measured after 10 mins by RP-HPLC analysis
pIC50 is a log-scale quantity: -log10 of the concentration expressed in molar.

Query: Reported pIC50, molecule CC(C)Cc1ccc(C(C)c2nc3cc(-c4n[nH]c(=S)o4)ccc3n2Cc2ccccc2Cl)cc1 (stereo not drawn) : ____
Reply: 6.22

Query: Reported pIC50, molecule CC(C)Cc1ccc(C(C)c2nc3cc(-c4ccc(C(=O)O)cc4)ccc3n2Cc2ccccc2Cl)cc1 (stereo not drawn) : ____
Reply: 5.49

Query: Reported pIC50, molecule "CC(C)c1ccc2c(c1)c(SC(C)(C)C)c(CC(C)(C)C(=O)O)n2Cc1ccc(Cl)cc1" : ____
Reply: 5.52
